Data credit: ChEMBL document CHEMBL4477209

Measured MIC90 by item
Tested on: Mycobacterium tuberculosis H37Rv
Assay: Inhibition of MmpL3 in clinical isolates of drug sensitive Mycobacterium tuberculosis H37Rv after 7 to 14 days by alamar blue assay
PROPERTY NAME: MIC90

1) O=C(Nc1nc2ccc(OC(F)(F)F)cc2s1)C1CCCCCC1 :: > 300 µM
2) CCCCCCCNC(=O)c1cc2c(Cl)cc(Cl)cc2[nH]1 :: > 300 µM
3) CC(C)=CCC/C(C)=C/CNC(=O)c1cc2c(F)cc(F)cc2[nH]1 :: > 192 µM
4) CCCCCCCCNC(=O)c1cc2c(Cl)cc(Cl)cc2[nH]1 :: > 300 µM
5) CC(C)=CCC/C(C)=C/CNC(=O)c1cc2c(Cl)cc(Cl)cc2[nH]1 :: 11 µM
6) O=C(NC1Cc2ccccc2C1)c1cc2c(Cl)cc(Cl)cc2[nH]1 :: 0.72 µM
7) CC1(C)[C@H]2CC[C@@]1(C)[C@H](NC(=O)c1cc3c(Cl)cc(Cl)cc3[nH]1)C2 :: 0.043 µM
8) Nc1ccc2[nH]c(C(=O)NC3CCCCCCC3)cc2c1 :: 80 µM
9) Nc1cccc2[nH]c(C(=O)NC3CCCCCCC3)cc12 :: 20 µM
10) C[C@@H](NC(=O)c1cc2c(Cl)cc(Cl)cc2[nH]1)C1CCCCC1 :: 5.9 µM
11) Cc1cc(C)c2cc(C(=O)NC3CCCCCCC3)[nH]c2c1 :: 0.013 µM
12) O=C(NC1Cc2ccccc2C1)c1cc2c(F)cc(F)cc2[nH]1 :: 102 µM
13) Cc1cccc2cc(C(=O)NC3CCCCCCC3)[nH]c12 :: 3.5 µM
14) Cc1cccc2[nH]c(C(=O)NC3CCCCCCC3)cc12 :: 0.11 µM
15) O=C(NC1CCC2(CCCCC2)CC1)c1cc2c(F)cc(F)cc2[nH]1 :: 0.003 µM
16) O=C(NC1CCCCCCC1)c1cc2c(Cl)cc(Cl)cc2[nH]1 :: 0.011 µM
17) Cc1cc(C)c2[nH]c(C(=O)NC3CCCCCCC3)cc2c1 :: 0.21 µM
18) Cc1cccc2cc(C(=O)NC3CCCCCC3)[nH]c12 :: 30 µM
